Provenance of the data: PubChem BioAssay (NCI)

- Test Description: NCI Yeast Anticancer Drug Screen. Data for the rad50 strain (AID 155);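 further: 0% = growth of vehicle-only cultures of the same strain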
- Condition Info: S. cerevisiae rad50 strain growth inhibition, hits give high values; at 50.0 µM unless noted
The panel holds about 79,000 compounds, 15% with a hit somewhere; the sample as a whole holds those more often.
Experimental Endpoint: growth inhibition (%)
State the answer as a number, implicitly in %.

Per the record, NC(=O)c1ccccc1OC(=O)Nc1ccc(F)c([N+](=O)[O-])c1 has growth inhibition of 3.75

---

- Test Description: NCI Yeast Anticancer Drug Screen. Data for the bub3 strain (AID 167)
- Condition Info: S. cerevisiae bub3 mutant strain, hits give high values; at 50.0 µM unless noted
The panel holds about 79,000 compounds, 15% with a hit somewhere; the sample as a whole holds those more often.
Experimental Endpoint: growth inhibition (%)
State the answer as a number, implicitly in %.

Example cases with answers are listed next.
                                   compound  experimental_endpoint  value_observed
0                    ON=C(c1ccccn1)c1ccccn1      growth inhibition           -8.25
1  CCCC(=O)Nc1ccc(C2=NNC(=O)C3CC23)cc1 (stereo not drawn)      growth inhibition            27.9
2  Cc1cn(C2CC(ON)C(CO)O2)c(=O)[nH]c1=O (stereo not drawn)      growth inhibition            6.25
3  CC1=CC(C)C(C(=O)OCC(C)C)C(C(=O)OCC(C)C)C1 (stereo not drawn)      growth inhibition              23

// below: growth inhibition requested for another compound
Per the record, Cn1c2ccc(Cl)cc2c2ccc3c(c21)C(=O)C=CC3=O has growth inhibition of -25.2
